assay: Plasma level by LC/MS after single oral administration in C57BL/6N mice; type: in vivo; settings: male, C57BL/6N, mouse, plasma, po, 2.5 mg/kg, 2.5 mg/kg oral, 4 h, parent molecule by LC/MS
MEASURED_PROPERTY: concentration at 4 h (ng/mL)
Numeric only. Scale: ng/mL

Noted for CN1C(C(=O)c2ccc3ccccc3c2)=C([O-])c2ccccc2S1(=O)=O.[K+] [Compound 1K] : its concentration at 4 h reads 3470

====

target: human 11β-HSD type 1 (Homo sapiens, UniProt P28845); test: Bioactivity of inguinal white adipose tissue after single oral administration in C57BL/6N mice, read as inhibition of human 11β-HSD type 1 (SPA); format: in vivo; conditions: mouse inguinal white adipose tissue extract, 4 h after 10 mg/kg oral
Sequence (P28845 whole entry): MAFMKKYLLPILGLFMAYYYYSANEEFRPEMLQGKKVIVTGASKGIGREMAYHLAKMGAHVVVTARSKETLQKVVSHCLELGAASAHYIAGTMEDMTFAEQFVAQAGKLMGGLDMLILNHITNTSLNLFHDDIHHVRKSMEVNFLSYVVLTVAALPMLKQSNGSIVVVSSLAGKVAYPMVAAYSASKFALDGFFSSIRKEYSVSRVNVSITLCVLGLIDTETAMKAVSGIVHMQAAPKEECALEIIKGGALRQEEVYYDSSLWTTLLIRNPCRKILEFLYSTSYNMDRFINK
// reported % inhibition after 4 h per item
Numeric only. Scale: %

Noted for CN1C(C(=O)c2ccc3ccccc3c2)=C(O)c2ccccc2S1(=O)=O : its % inhibition after 4 h reads 63

Noted for CN1C(C(=O)c2ccc(-c3ccc(C#N)cc3)cc2)=C([O-])c2ccccc2S1(=O)=O.[K+] [Compound 2K, reference compound] : its % inhibition after 4 h reads 72

Noted for CN1C(C(=O)c2ccc3ccccc3c2)=C([O-])c2ccccc2S1(=O)=O.[K+] : its % inhibition after 4 h reads 70

Noted for C1CCc2nnc(C34CC5CC(CC(C5)C3)C4)n2CC1 [Compound 3, reference compound] : its % inhibition after 4 h reads 15
